Biological target: UniProtKB Q09472
Sequence (Q09472 whole entry): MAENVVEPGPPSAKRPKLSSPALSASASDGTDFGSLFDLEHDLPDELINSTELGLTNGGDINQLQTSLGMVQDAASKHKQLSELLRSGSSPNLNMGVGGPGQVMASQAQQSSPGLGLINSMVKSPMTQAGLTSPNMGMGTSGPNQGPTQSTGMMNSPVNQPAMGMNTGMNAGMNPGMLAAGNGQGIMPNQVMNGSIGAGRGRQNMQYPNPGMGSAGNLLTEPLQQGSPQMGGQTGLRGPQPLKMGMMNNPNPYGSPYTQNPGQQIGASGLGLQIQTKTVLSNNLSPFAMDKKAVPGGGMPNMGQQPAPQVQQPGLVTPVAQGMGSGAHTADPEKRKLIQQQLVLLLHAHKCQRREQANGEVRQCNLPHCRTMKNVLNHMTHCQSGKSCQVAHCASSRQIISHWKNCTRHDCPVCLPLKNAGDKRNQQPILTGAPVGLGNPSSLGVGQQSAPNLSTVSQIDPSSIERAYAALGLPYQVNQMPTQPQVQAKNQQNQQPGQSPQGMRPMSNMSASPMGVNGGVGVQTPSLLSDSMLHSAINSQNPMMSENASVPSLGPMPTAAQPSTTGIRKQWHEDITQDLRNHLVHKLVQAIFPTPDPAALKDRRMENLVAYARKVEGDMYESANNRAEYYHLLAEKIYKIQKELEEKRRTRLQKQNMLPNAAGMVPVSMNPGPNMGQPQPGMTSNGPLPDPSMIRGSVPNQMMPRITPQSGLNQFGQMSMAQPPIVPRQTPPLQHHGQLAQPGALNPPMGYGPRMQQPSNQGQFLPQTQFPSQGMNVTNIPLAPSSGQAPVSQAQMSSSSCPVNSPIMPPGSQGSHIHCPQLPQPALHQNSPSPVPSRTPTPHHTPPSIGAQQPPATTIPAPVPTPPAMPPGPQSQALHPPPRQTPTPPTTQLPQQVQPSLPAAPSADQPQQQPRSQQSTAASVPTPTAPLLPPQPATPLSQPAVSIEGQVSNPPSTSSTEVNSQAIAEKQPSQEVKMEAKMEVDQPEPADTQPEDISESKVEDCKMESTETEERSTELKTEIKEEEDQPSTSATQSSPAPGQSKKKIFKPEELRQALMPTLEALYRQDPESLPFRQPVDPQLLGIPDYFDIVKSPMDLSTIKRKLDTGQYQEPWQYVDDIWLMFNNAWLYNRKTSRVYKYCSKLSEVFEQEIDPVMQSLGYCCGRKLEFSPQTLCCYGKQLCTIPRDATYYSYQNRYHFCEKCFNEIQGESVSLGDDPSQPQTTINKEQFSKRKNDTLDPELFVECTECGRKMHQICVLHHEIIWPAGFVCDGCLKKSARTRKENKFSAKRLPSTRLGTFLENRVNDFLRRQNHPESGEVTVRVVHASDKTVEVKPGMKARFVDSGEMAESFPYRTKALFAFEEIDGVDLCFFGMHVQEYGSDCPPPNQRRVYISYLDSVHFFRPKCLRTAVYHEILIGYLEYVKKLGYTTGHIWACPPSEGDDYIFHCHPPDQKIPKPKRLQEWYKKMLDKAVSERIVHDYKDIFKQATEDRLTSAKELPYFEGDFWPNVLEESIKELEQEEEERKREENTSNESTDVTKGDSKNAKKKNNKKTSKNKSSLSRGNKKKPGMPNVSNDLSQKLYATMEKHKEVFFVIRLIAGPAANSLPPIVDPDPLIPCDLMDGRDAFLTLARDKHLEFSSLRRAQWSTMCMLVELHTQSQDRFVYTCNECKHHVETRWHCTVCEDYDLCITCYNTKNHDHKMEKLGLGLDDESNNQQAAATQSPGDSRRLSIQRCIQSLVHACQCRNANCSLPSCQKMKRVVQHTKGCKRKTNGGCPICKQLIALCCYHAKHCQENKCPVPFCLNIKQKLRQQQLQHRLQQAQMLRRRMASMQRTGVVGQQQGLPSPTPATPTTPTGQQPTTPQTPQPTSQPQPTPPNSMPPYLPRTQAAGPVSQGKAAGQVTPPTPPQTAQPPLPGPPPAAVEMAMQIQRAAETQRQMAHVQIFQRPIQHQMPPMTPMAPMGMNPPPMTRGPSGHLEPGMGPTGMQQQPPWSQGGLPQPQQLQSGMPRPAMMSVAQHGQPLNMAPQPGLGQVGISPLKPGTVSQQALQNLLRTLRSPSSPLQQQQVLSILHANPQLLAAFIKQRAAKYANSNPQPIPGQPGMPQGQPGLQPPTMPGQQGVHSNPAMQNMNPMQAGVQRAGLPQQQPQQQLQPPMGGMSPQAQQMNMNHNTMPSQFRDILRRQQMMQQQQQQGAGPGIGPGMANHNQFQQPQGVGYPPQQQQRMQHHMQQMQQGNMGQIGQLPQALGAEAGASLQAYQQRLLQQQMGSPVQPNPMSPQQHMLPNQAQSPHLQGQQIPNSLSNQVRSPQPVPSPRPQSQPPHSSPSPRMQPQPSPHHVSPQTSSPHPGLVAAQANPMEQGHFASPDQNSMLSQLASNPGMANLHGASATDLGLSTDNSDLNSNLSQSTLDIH
Assay: Inhibition of P300 (unknown origin) using histone H3/[acetyl-3H]-acetyl coenzyme A as substrate
Threshold 4 µM: IC50 strictly smaller gives met, otherwise not met.

Exercise: Consider COc1ccc(C=C2C(=O)N(Cc3ccccc3)C(=O)N(Cc3ccccc3)C2=O)cc1 . Does its IC50 lie strictly below 4 µM?
Solution: not met

Exercise: Consider CC(C)CN1C(=O)C(=Cc2ccc(O)cc2)C(=O)N(CC(C)C)C1=O . Does its IC50 lie strictly below 4 µM?
Solution: not met

Exercise: Consider COc1cc(C=C2C(=O)N(CC(C)C)C(=O)N(CC(C)C)C2=O)ccc1O . Does its IC50 lie strictly below 4 µM?
Solution: not met

Exercise: Consider O=C1C(=Cc2ccc(O)c(O)c2)C(=O)N(Cc2ccccc2)C(=O)N1Cc1ccccc1 . Does its IC50 lie strictly below 4 µM?
Solution: met

Exercise: Consider CC(C)CN1C(=O)C(=Cc2ccc(O)c(O)c2)C(=O)N(CC(C)C)C1=O . Does its IC50 lie strictly below 4 µM?
Solution: not met
